Items are presented alongside their recorded % residual binding.
Target desc: T1, biotinylated CD32bECDHis (human, UniProt P31994 43-223, limits assumed, biotinylated (sites not given))
T1 sequence (looked up): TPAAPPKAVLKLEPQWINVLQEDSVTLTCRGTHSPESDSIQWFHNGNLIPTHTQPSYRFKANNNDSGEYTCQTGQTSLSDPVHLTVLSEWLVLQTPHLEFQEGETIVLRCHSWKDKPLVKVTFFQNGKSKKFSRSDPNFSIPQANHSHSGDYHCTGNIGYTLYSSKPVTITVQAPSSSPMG
Experimental details: competition ELISA, competitor 022
The answer is to be given in %; state only the numeric part.

Consider the reported % residual binding for these binders:
Binder: Antibody 022 (antibody, V domains shown, also called HuMab 022) VH: QVQLVQSGAEVKKPGASVKVSCKASGYTFTSYGLSWVRQAPGQGLEWMGWISPYNGNTHYAQKLQGRVTMTTDTSTSTADMDLRSLRSDDTAVYYCARASAAHGMDVWGQGTTVTVSS VL: DIQMTQSPSSLSASVGDRVTITCRASQGISSWLAWYQQKPEKAPKSLIYAASSLQSGVPSRFSGSRSGTDFTLTISSLQPEDFATYYCQQYNSYPYTFGQGTKLEIKR
Unit text: %
% residual binding: 14

Binder: Antibody 053 (antibody, human IgG1, V domains shown, Human antibody; also called HuMab 053) VH: QVQLVESGGGVVQPGRSLRLSCAVSGFTFRSYGMHWVRQAPGKGLEWVAVIWYDGSIKYYADSVKGRFTISRDNSKNTLYLQMNSLRAEDTAVYFCAREGGRDAFDIWGQGTMVTVSS VL: AVQLTQSPSSLSASVGDRVTITCRASQGISSALAWYQQKPGKAPKLLIYDASSLESGVPSRFSGSGSGTDFTLTISSLQPEDFATYCCQQFNSYPHTFGGGTKVEIKR
Unit text: %
% residual binding: 8

Request the reported % residual binding associated with Antibody 038 (antibody, human IgG1, V domains shown, Human antibody; also called HuMab 038) VH: QVQLVESGGGVVQPGRSLRLSCAASGFTFSTYGMHWVRQAPGKGLEWVAVISHDGSDKYYADSVKGRFTISRDNSKNTLYLQMNSLRAEDTAVYYCARDQSIIETFDYWGQGTLVTVSS VL: EIVLTQSPATLSLSPGERATLSCRASQSVSSYLAWYQQKPGQAPRLLIYDASNRATGIPARFSGSGSGTDFTLTISSLEPEDFAVYYCQQRSNWGFTFGPGTKVDIKR
350
